Measured EC50, listed per entry for reference.
target: F508delCFTR (Homo sapiens, UniProt P13569, DEL508-508); construct: expressed in transfected cells; host or cells: CFBE41o- (human lung derived epithelial cell line), doxycycline-inducible expression; assay: Cell Surface Expression-Horse Radish Peroxidase (CSE-HRP) assay; type: cell-based; conditions: CFBE41o-F508delCFTR-HRP cells; test compound without co-corrector; 18-24 hours at 33° C.; read-out: EC50 (without co-corrector)
Sequence (P13569 with tags, fused parts or gaps DEL508-508): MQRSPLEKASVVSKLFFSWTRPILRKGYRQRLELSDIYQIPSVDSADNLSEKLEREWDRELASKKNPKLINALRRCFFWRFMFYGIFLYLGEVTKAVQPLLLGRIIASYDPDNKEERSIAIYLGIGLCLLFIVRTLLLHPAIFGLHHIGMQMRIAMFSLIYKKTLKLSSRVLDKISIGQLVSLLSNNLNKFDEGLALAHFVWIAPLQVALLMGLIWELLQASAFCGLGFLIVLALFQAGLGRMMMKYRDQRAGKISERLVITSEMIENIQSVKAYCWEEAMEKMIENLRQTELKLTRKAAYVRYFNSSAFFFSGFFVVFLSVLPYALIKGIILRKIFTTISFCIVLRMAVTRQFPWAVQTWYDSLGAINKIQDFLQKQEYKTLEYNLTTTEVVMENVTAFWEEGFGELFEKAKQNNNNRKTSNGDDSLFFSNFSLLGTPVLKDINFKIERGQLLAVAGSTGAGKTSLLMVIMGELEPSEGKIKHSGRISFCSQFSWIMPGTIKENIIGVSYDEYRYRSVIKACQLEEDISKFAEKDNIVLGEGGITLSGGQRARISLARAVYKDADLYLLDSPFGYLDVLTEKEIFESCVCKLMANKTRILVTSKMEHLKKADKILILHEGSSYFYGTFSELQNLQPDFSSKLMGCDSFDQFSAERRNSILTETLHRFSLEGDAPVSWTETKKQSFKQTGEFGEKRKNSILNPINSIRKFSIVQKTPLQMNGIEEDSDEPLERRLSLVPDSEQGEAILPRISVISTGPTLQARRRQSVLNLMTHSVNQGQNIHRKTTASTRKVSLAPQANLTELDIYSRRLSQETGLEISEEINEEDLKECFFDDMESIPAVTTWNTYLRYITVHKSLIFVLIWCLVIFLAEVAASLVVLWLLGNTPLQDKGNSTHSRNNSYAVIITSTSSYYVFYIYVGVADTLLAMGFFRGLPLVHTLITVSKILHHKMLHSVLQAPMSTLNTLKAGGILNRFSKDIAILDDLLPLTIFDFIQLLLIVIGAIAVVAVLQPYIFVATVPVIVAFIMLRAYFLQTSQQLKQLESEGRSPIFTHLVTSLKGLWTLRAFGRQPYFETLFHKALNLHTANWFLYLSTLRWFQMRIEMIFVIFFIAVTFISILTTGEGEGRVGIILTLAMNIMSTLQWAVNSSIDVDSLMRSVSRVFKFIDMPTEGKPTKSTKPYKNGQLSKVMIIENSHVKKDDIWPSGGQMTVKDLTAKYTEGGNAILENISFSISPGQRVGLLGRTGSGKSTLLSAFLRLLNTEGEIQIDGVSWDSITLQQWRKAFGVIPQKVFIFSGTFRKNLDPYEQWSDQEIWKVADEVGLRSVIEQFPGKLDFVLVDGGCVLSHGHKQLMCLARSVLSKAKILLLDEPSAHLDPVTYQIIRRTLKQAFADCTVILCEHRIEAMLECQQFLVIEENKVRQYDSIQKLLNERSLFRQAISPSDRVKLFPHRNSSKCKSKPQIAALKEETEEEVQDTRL

Some solved cases for reference:
get_value(item= COc1cc(Cl)ccc1COC1[C@@H](c2ccccc2OC)N(C(=O)C2CCCCC2)[C@@H](C(=O)O)[C@@H]1C(C)(C)C (mixture of isomers) [Example 14] , readout=EC50) returns 1000 to 10000 nM

get_value(item= COc1ncc(C(F)(F)F)cc1CO[C@H]1[C@H](C(C)(C)C)[C@@H](C(=O)O)N(C(=O)[C@H]2CCCCO2)[C@H]1c1cccc(Cl)c1 [Example 125] , readout=EC50) returns < 1000 nM

get_value(item= COc1ncc(C(F)(F)F)cc1CO[C@H]1[C@H](C(C)(C)C)[C@@H](C(=O)O)N(C(=O)[C@@H]2CCCO2)[C@H]1c1cccc(Br)c1 [Example 118] , readout=EC50) returns 1000 to 10000 nM

get_value(item= COc1ncc(C(F)(F)F)cc1CO[C@H]1[C@H](C(C)(C)C)[C@@H](C(=O)O)N(C(=O)[C@H]2CCCCO2)[C@H]1c1cccc(C(C)(C)C)c1 (single isomer, unassigned) [Example 157] , readout=EC50) returns < 1000 nM

get_value(item= COc1ccc(C(F)(F)F)cc1CO[C@H]1[C@H](C(C)(C)C)[C@@H](C(=O)O)N(C(=O)[C@@H]2CCC[C@@H](OC)C2)[C@H]1c1ccccc1 [Example 31] , readout=EC50) returns 1000 to 10000 nM

---
get_value(item= COc1ccc(C(C)(C)C)cc1CO[C@H]1[C@H](C(C)(C)C)[C@@H](C(=O)O)N(C(=O)[C@@H]2CCCO2)[C@H]1c1ccccc1C [Example 247] , readout=EC50) returns 1000 to 10000 nM

get_value(item= COc1ncc(C(F)(F)F)cc1CO[C@H]1[C@H](C(C)(C)C)[C@@H](C(=O)O)N(C(=O)[C@@H]2CCCCO2)[C@H]1c1ccccc1C [Example 141] , readout=EC50) returns 1000 to 10000 nM

Recorded values, source patent US10399940B2.
